target: Human CXCR3 (N-delta 4) (Homo sapiens, UniProt P49682); construct: CD8 leader (N); Flag tag; expressed in transfected cells; membranes prepared; assay: Human CXCR3 (N-delta 4) scintillation proximity assay (SPA), [125I] IP-10 binding to Ba/F3-hCXCR3 membranes; settings: IC50 rating; 25 pM [125I] IP-10, membranes of Ba/F3 cells expressing human CXCR3 (N-delta 4)
Sequence (P49682 5-368 limits assumed): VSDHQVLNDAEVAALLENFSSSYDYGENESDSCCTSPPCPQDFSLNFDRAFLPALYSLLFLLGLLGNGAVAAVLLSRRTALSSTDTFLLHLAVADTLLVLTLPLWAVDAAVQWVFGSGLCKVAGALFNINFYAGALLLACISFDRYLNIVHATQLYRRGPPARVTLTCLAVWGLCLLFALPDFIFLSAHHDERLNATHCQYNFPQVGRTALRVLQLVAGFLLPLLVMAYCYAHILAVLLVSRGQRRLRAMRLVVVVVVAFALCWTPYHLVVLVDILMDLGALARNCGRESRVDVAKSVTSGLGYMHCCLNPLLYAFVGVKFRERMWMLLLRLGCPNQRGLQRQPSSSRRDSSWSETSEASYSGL
pIC50: −log10 of the molar value.
measured.endpoint: pIC50

[[record]]
compound = "CC[C@H]1CN(c2nc(N)c(C(N)=O)nc2Cl)CCN1C1CCN(C(=O)c2cc(F)c(Cl)nc2Cl)CC1"
result = "7.00 to 7.60"

[[record]]
compound = "CC[C@H]1CN(c2nc(N)c(C(=O)NCCO)nc2Cl)CCN1C1CCN(C(=O)c2ccc(C(N)=O)nc2N)CC1"
result = "< 7.00"


Turning to the following compound.
Reported pIC50 for Human CXCR3 (N-delta 4) (Homo sapiens, UniProt P49682), given CCOC(=O)C1(NC(=O)c2nc(Cl)c(N3CCN(C4CCN(C(=O)c5ccc(Cl)nc5N)CC4)[C@@H](CC)C3)nc2N)CC1 ?
< 7.00
